src = patent US20100298300A1

PROPERTY MEASURED: IC50

Input line: // lookup IC50 | system=MAPKAPK5 (Homo sapiens, UniProt Q8IW41) | key= CC(C)N1CCN(c2ccc(Nc3ncc(-c4cc(F)c(C(N)=O)c(F)c4)n4ncnc34)cc2)CC1 [Compound 26]
Output line: > 1000 nM

Input line: Reported IC50 for MAPKAPK5 (Homo sapiens, UniProt Q8IW41), given CCN(CCOC)C(=O)c1ccc(Nc2ncc(-c3cn[nH]c3)n3ncnc23)cc1 [Compound 157] ?
Output line: > 1000 nM

Input line: # value lookup — system MAPKAPK5 (Homo sapiens, UniProt Q8IW41), readout IC50, item NC(=O)c1cc(-c2cnc(Nc3ccc(N4CCN(CC5CC5)CC4)nc3)c3ncnn23)cs1 [Compound 54]
Output line: 101 to 500 nM

Input line: # value lookup — system MAPKAPK5 (Homo sapiens, UniProt Q8IW41), readout IC50, item O=C1CN(c2ccc(Nc3ncc(-c4cn[nH]c4)n4ncnc34)cc2)CCN1 [Compound 177]
Output line: > 1000 nM

Input line: API: value(readout= IC50, system= MAPKAPK5 (Homo sapiens, UniProt Q8IW41), query= CC(C)N1CCN(c2ccc(Nc3ncc(-c4coc(C(N)=O)c4)n4ncnc34)cc2)CC1 [Compound 88] )
Output line: 1 to 100 nM

Input line: Lookup: IC50 / MAPKAPK5 (Homo sapiens, UniProt Q8IW41) / NC(=O)c1cc(-c2cnc(Nc3ccc(N4CCOCC4)cc3)c3ncnn23)cs1 [Compound 15]
Output line: 101 to 500 nM

Input line: Checklist item: IC50 tested on MAPKAPK5 (Homo sapiens, UniProt Q8IW41), entry O=C(NCc1ccccc1)c1cccc(Nc2ncc(-c3cn[nH]c3)n3ncnc23)c1 [Compound 123] , value?
Output line: > 1000 nM

Input line: Provide value of IC50 for this record tested with MAPKAPK5 (Homo sapiens, UniProt Q8IW41): O=C1NCc2cc(-c3cnc(Nc4ccc(F)cc4)c4ncnn34)ccc21 [Compound 117]
Sequence (Q8IW41 1-471 isoform Q8IW41-2): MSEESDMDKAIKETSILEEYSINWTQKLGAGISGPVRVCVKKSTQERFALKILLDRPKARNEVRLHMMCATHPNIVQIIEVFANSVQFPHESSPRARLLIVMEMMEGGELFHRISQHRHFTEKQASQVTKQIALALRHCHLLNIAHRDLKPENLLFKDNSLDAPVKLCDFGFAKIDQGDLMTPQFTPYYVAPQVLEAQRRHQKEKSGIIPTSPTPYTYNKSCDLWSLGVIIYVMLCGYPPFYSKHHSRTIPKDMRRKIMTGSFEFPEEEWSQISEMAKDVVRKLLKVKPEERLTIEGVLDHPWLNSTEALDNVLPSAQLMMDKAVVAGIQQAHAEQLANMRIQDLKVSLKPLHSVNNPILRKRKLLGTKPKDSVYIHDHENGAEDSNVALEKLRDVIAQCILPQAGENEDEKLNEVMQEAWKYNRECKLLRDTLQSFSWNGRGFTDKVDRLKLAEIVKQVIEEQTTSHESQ
Output line: > 1000 nM

Input line: Return IC50 measured with MAPKAPK5 (Homo sapiens, UniProt Q8IW41) given this compound: O=C(NCc1ccccn1)c1cccc(Nc2ncc(-c3cn[nH]c3)n3ncnc23)c1 [Compound 124]
Output line: > 1000 nM
